- System: J774
- assay summary: Cytotoxicity against mouse J774 cells assessed as reduction in cell viability at 64 uM incubated for 2 hrs by MTS assay
- Type: cell-based
- recorded conditions: j774, 2 h
experimental endpoint: Activity

{"columns": ["compound smiles", "experimental result"],
 "data": [
  ["[C-]#[N+]c1ccccc1/C=C/c1ccccc1", "Non-toxic"],
  ["[C-]#[N+]c1ccccc1/C=C/c1cccnc1", "Non-toxic"],
  ["[C-]#[N+]c1ccccc1/C=C/c1ccc(F)cc1", "Non-toxic"],
  ["[C-]#[N+]c1ccccc1/C=C/c1cccc(F)c1", "Toxic"],
  ["[C-]#[N+]c1ccccc1/C=C(\\CC)c1cccc(C(F)(F)F)c1", "Toxic"],
  ["[C-]#[N+]c1cccc(/C=C/c2ccccc2)c1", "Non-toxic"]
]}

Query (molecule): [C-]#[N+]c1ccccc1/C=C/c1cccc(OC)c1 ; field requested: Activity Non-toxic

What Activity value was documented for this molecule, [C-]#[N+]c1ccccc1/C=C/c1ccc(OC)cc1 ? Non-toxic

====

// reported MIC per item
- Test system: Staphylococcus aureus
- assay summary: Antimicrobial activity against methicillin-resistant Staphylococcus aureus USA300 assessed as reduction in bacterial growth incubated for 18 to 20 hrs at 37 degC by broth microdilution method
- Assay type: functional

Consider the reported MIC for these compounds:
{"columns": ["compound smiles", "MIC"],
 "data": [
  ["[C-]#[N+]c1ccccc1/C=C(\\CC)c1cccc(C(F)(F)F)c1", "> 128 µM"],
  ["CC/C(=C\\c1ccccc1)c1ccccc1", "> 128 µM"]
]}

Which MIC value is on record for [C-]#[N+]c1ccc(C)cc1-c1ccc(C(C)(C)C)cc1 ? > 128 µM

====

- Test system: Staphylococcus aureus
- assay summary: Antimicrobial activity against methicillin-resistant Staphylococcus aureus USA500 assessed as reduction in bacterial growth incubated for 18 to 20 hrs at 37 degC by broth microdilution method
- Type: functional
experimental endpoint: MIC

{"columns": ["compound", "experimental target", "MIC"],
 "data": [
  ["CC/C(=C\\c1ccccc1)c1ccccc1", "Staphylococcus aureus", "> 128 µM"]
]}

What measured MIC goes with [C-]#[N+]c1ccc(C)cc1-c1ccc(C(F)(F)F)cc1 ? > 128 µM

Returns the measured MIC for the input compound. Input: [C-]#[N+]c1ccccc1/C=C/c1ccc(OC)cc1 > 128 µM

# query: MIC of entry [C-]#[N+]c1ccccc1/C=C/c1ccc(CCCC)cc1 > 128 µM

Which value of MIC has been reported for CC(=O)NC[C@H]1CN(c2ccc(N3CCOCC3)c(F)c2)C(=O)O1 [LINEZOLID] in the records? < 1 µM

Given Nc1ccccc1CCc1ccccc1 , state its recorded MIC. > 64 µM

====

- Test system: J774
- assay summary: Cytotoxicity against mouse J774 cells assessed as reduction in cell viability at 64 uM incubated for 2 hrs by MTS assay
- Assay type: cell-based
- recorded conditions: j774, 2 h
experimental endpoint: Activity

Before answering, review these 7 worked examples.
{"columns": ["compound smiles", "experimental result"],
 "data": [
  ["[C-]#[N+]c1ccccc1/C=C/c1ccc([N+](=O)[O-])cc1", "Toxic"],
  ["CC/C(=C\\c1ccccc1)c1ccccc1", "Non-toxic"],
  ["[C-]#[N+]c1ccc(/C=C/c2ccccc2)cc1", "Non-toxic"],
  ["[C-]#[N+]c1ccc(/C=C/c2ccncc2)cc1", "Non-toxic"],
  ["[C-]#[N+]c1ccccc1-c1ccc2ccccc2c1", "Non-toxic"],
  ["[C-]#[N+]c1ccccc1/C=C(\\CC)c1ccc(OC)cc1", "Toxic"],
  ["[C-]#[N+]c1ccccc1/C=C/c1ccc(C(F)(F)F)cc1", "Non-toxic"]
]}

Now for another entry.
Recorded Activity for [C-]#[N+]c1ccc(/C=C/c2cccnc2)cc1 with J774, please? Non-toxic
